# measurement notes: MM1S myeloma cell viability, profiling panel, resazurin fluorescence, basal, 24 h, PK04 Diversity Set (AID 1174);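 further: MM1S multiple myeloma cell line; test concentration not given here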
# measurement setup: higher = more signal, called active from +8 up or from −8 down

compound | z-score
CO[C@@H]1COC(=O)CC=C[C@@H](C)[C@H](OC)COC(=O)[C@@H](C)COC(=O)CC=C[C@H]1C | 0.586
CCOC(=O)[C@H](CC(C)C)NC(=O)CCC1CC(OC(=O)NCCc2ccc(F)cc2)CC2(CCCC(COC(=O)NCCC(C)C)O2)O1 (some centres not stated) | 0.214
CC(C)=CCCC(C)=CCON=C1C[C@@H](O)[C@@H](O)[C@@H]2[C@@H]3C(=O)N(C(C)(C)C)C(=O)[C@@H]3CC[C@@H]12 | 0.408
CCOC(=O)NN=C1C[C@@H](O)[C@@H](O)[C@@H]2[C@@H]3C(=O)N([C@@H](C)c4ccccc4)C(=O)[C@@H]3CC[C@@H]12 | -0.371
CC(C)[C@@H](OCc1ccccc1)[C@H](C)C=NOC[C@@H](O)COCc1ccco1 | -0.911
C=CC1=C[C@H](O)[C@@H]2O[C@@H]2C12OCCCO2 | -0.458
CCOC(=O)[C@H](CC(C)C)NC(=O)CCC1CC(OC(=O)NCc2cccc3ccccc23)CC2(CCCC(COC(=O)NCCC(C)C)O2)O1 (some centres not stated) | 0.771
C[C@@H](c1ccccc1)N1C(=O)[C@H]2[C@H]3[C@H](O)[C@H](O)CC(=NO[C@@H]4O[C@H](CO)[C@@H](O)[C@H](O)[C@H]4O)[C@H]3CC[C@H]2C1=O | 0.174
CCOC(=O)[C@H](Cc1ccccc1)NC(=O)CCC1CC(OC(=O)NCCc2ccc(F)cc2)CC2(CCCC(COC(=O)NCCOC)O2)O1 (some centres not stated) | -0.195
CCOC(=O)C1=NO[C@]2(C=C(Br)C3(OCCCO3)[C@H]3O[C@H]32)C1 | -0.734
CO[C@H]1COC(=O)CC=C[C@@H](C)[C@H](OC)COC(=O)CCC[C@@H]1C | 0.818
CCCNC(=O)OC[C@H]1O[C@H](CCON=C(C)C)C=C[C@@H]1Oc1ccc(OC)cc1 | -0.112
